// data source = patent US20250027068

# TGT: pooled human IgG (human IgG1, 2, 3 and 4)
EXPERIMENTAL READOUT: Enzyme Activity Endpoint Assay: Fc (ng/µL)

protein="PRT-685 (protein) MQITSVWTKGVTPLTPEQFRNNNEDVIHAPYLPNQGWYDITKAFNGKDNLLCGAATAGNMLHWWFDQNKEEIEAYLKKYPEKQKIIFNNQELFDLRKAINTKDSQTNSALFNYFRDKAFPNLSARQLGVMPDLVLDMFINGYYLNVFKTQSTDVNRPYQDKDKRGGIFDHVFNRGDQTTLLTARHDLKNKTLNDISTIIKQELSSGKALALSHTYANVSISHVINLWGADFNAEGNLEAIYVTDSDANASIGMKKYYVGRNAHGHVAISAKKIEGENIGAQVLGLFTLSSGKEIWQKLSLEHHHHHH" endpoint_unit=ng/µL result_number=448
